# experiment-description: activity coefficient (dimensionless); of the first substance listed, at infinite dilution; xn = mol fraction of the nth substance listed
# condition-set: 333.15 K; Liquid; Chromatography; x1 = 0
outcome-measure: activity coefficient

1. ClC(Cl)(Cl)Cl [tetrachloromethane] + CCn1cc[n+](C)c1.CS(=O)(=O)[O-]: 5.36
2. ClCCl [dichloromethane] + CCn1cc[n+](C)c1.CS(=O)(=O)[O-]: 0.78
3. CC(C)O [propan-2-ol] + CCn1cc[n+](C)c1.CS(=O)(=O)[O-]: 0.933
4. CCC1CCCCC1 [ethylcyclohexane] + CCn1cc[n+](C)c1.CS(=O)(=O)[O-]: 291
5. CC(C)OC(C)C [diisopropyl ether] + CCn1cc[n+](C)c1.CS(=O)(=O)[O-]: 114
6. COC(=O)OC [dimethyl carbonate] + CCn1cc[n+](C)c1.CS(=O)(=O)[O-]: 3.16
7. CCCCCCC [heptane] + CCn1cc[n+](C)c1.CS(=O)(=O)[O-]: 523
8. CCCCCCCC [octane] + CCn1cc[n+](C)c1.CS(=O)(=O)[O-]: 839
9. c1ccsc1 [thiophene] + CCn1cc[n+](C)c1.CS(=O)(=O)[O-]: 2.11

---

# experiment-description: activity coefficient (dimensionless); of the first substance listed, at infinite dilution; xn = mol fraction of the nth substance listed
# condition-set: 343.15 K; Liquid; Chromatography; x1 = 0
Assign YES whenever activity coefficient does not fall below 20; assign NO whenever it does.

1. CCCCCCC [heptane] + CCn1cc[n+](C)c1.CS(=O)(=O)[O-]: YES
2. CO [methanol] + CCn1cc[n+](C)c1.CS(=O)(=O)[O-]: NO
3. Cc1ccccc1 [toluene] + CCn1cc[n+](C)c1.CS(=O)(=O)[O-]: NO
4. CC(C)OC(C)C [diisopropyl ether] + CCn1cc[n+](C)c1.CS(=O)(=O)[O-]: YES
5. Cc1cccc(C)c1 [1,3-dimethylbenzene] + CCn1cc[n+](C)c1.CS(=O)(=O)[O-]: NO
6. CCCCCCCC [octane] + CCn1cc[n+](C)c1.CS(=O)(=O)[O-]: YES
7. CCc1ccccc1 [ethylbenzene] + CCn1cc[n+](C)c1.CS(=O)(=O)[O-]: NO
8. CC(C)O [propan-2-ol] + CCn1cc[n+](C)c1.CS(=O)(=O)[O-]: NO
9. COC(C)=O [methyl ethanoate] + CCn1cc[n+](C)c1.CS(=O)(=O)[O-]: NO
10. CCO [ethanol] + CCn1cc[n+](C)c1.CS(=O)(=O)[O-]: NO
11. c1ccsc1 [thiophene] + CCn1cc[n+](C)c1.CS(=O)(=O)[O-]: NO
12. ClC(Cl)Cl [trichloromethane] + CCn1cc[n+](C)c1.CS(=O)(=O)[O-]: NO
13. CCC(C)=O [butanone] + CCn1cc[n+](C)c1.CS(=O)(=O)[O-]: NO
14. CCOC(C)=O [ethyl acetate] + CCn1cc[n+](C)c1.CS(=O)(=O)[O-]: NO
15. CCC1CCCCC1 [ethylcyclohexane] + CCn1cc[n+](C)c1.CS(=O)(=O)[O-]: YES
16. C=CCCCCCC [oct-1-ene] + CCn1cc[n+](C)c1.CS(=O)(=O)[O-]: YES
17. CC1CCCCC1 [methylcyclohexane] + CCn1cc[n+](C)c1.CS(=O)(=O)[O-]: YES
18. C1CCOC1 [tetrahydrofuran] + CCn1cc[n+](C)c1.CS(=O)(=O)[O-]: NO
19. C[N+](=O)[O-] [nitromethane] + CCn1cc[n+](C)c1.CS(=O)(=O)[O-]: NO
